The entries below are paired with their reported Kd.
System Tested: T1, human β-amyloid 1-40 (human, UniProt P05067 672-711)
T1 construct: domain: β-amyloid (1-40); Used in solution over captured antibody (Biacore) or coated on ELISA plates; also called human Aβ peptide (1-40); Aβ peptide (1-40)
T1 sequence (P05067 672-711 limits assumed): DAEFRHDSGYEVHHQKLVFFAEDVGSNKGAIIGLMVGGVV
Test: SPR Biacore T100; antibody captured on anti-human IgG, Aβ 1-40 at 1-256 nM; 1:1 model
Express your answer in nM, writing the number without its unit.

The examples below pair each entry with its known result.
{"columns": ["Binder", "Reported Measurement"],
 "data": [
  ["humanised de-immunised construct H49L21 (antibody, human IgG1, V domains shown) VH: QVQLVQSGAEVKEPGASVKVSCKGSGFNIKTYYVHWLRQLPEKGLEWIGRIDPENGETIYTPKFQDKATLTVDTSTDTAYMELSSLRSEDTAVYYCVSSGYWGQGTLVTVSS VL: DIVMTQSPLSNPVTPGEPASISCRSSKSLLHRNGKTYLYWYLQKPGQSPQLLIYQMDNLASGVPDRFSSSGSGTDFTLKISRVEAEDVGVYYCAQNLELWTFGQGTKVEIK", 2.58],
  ["humanised de-immunised construct H50L21 (antibody, human IgG1, V domains shown) VH: QVQLVQSGAEVKEPGASVKVSCTGSGFNIHVYYVHWLRQLPEKGLEWIGRIDPENGETIYTPKFQDKATLTVDTSTDTAYMELSSLRSEDTAVYYCVSSGYWGQGTLVTVSS VL: DIVMTQSPLSNPVTPGEPASISCRSSKSLLHRNGKTYLYWYLQKPGQSPQLLIYQMDNLASGVPDRFSSSGSGTDFTLKISRVEAEDVGVYYCAQNLELWTFGQGTKVEIK", 2.17],
  ["humanised de-immunised construct H49L20 (antibody, human IgG1, V domains shown) VH: QVQLVQSGAEVKEPGASVKVSCKGSGFNIKTYYVHWLRQLPEKGLEWIGRIDPENGETIYTPKFQDKATLTVDTSTDTAYMELSSLRSEDTAVYYCVSSGYWGQGTLVTVSS VL: DIVMTQSPLSNPVTPGEPASISCRSSKSLLHRNGITYLYWYLQKPGQSPQLLIYQMDHLASGVPDRFSSSGSGTDFTLKISRVEAEDVGVYYCAQNLELWTFGQGTKVEIK", 2.23],
  ["chimeric 6F6 antibody (6F6c) (antibody, human IgG1, V domains shown, Murine V regions on human IgG1 (Fc disabled) and human C kappa; also called 6F6 Chimera (pur); chimeric molecule of 6F6) VH: EVQLQQSGAELVEPGASVKLSCTGSGFNIKVYYVHWLKQLTEQGLEWIGRIDPENGETIYTPKFQDKATLTVDTSSNTAYLQLSSLTSEDAAVYYCVSSGYWGQGTLVTVSS VL: DIVMTQSAFSNPVTLGTSASISCRSSKSLLHRNGITYLYWYLQKPGQPPQLLIYQMSNLASGVPDRFTSSGSGTDFTLKISRVEAEDVGVYYCAQNLELWTFGGGTKLEIK", 1],
  ["humanised de-immunised construct H48L19 (antibody, human IgG1, V domains shown) VH: QVQLVQSGAEVKEPGASVKVSCKGSGFNIHVYYVHWLRQLPEKGLEWIGRIDPENGETIYTPKFQDKATLTVDTSTDTAYMELSSLRSEDTAVYYCVSSGYWGQGTLVTVSS VL: DIVMTQSPLSNPVTPGEPASISCRSSKSLLHRNGKTYLYWYLQKPGQSPQLLIYQMDHLASGVPDRFSSSGSGTDFTLKISRVEAEDVGVYYCAQNLELWTFGQGTKVEIK", 3.15],
  ["humanised de-immunised construct H51L20 (antibody, human IgG1, V domains shown) VH: QVQLVQSGAEVKEPGASVKVSCKGSGFNIHTYYVHWLRQLPEKGLEWIGRIDPENGETIYTPKFQDKATLTVDTSTDTAYMELSSLRSEDTAVYYCVSSGYWGQGTLVTVSS VL: DIVMTQSPLSNPVTPGEPASISCRSSKSLLHRNGITYLYWYLQKPGQSPQLLIYQMDHLASGVPDRFSSSGSGTDFTLKISRVEAEDVGVYYCAQNLELWTFGQGTKVEIK", 2.23],
  ["humanised de-immunised construct H51L21 (antibody, human IgG1, V domains shown) VH: QVQLVQSGAEVKEPGASVKVSCKGSGFNIHTYYVHWLRQLPEKGLEWIGRIDPENGETIYTPKFQDKATLTVDTSTDTAYMELSSLRSEDTAVYYCVSSGYWGQGTLVTVSS VL: DIVMTQSPLSNPVTPGEPASISCRSSKSLLHRNGKTYLYWYLQKPGQSPQLLIYQMDNLASGVPDRFSSSGSGTDFTLKISRVEAEDVGVYYCAQNLELWTFGQGTKVEIK", 2.05],
  ["humanised de-immunised construct H49L19 (antibody, human IgG1, V domains shown) VH: QVQLVQSGAEVKEPGASVKVSCKGSGFNIKTYYVHWLRQLPEKGLEWIGRIDPENGETIYTPKFQDKATLTVDTSTDTAYMELSSLRSEDTAVYYCVSSGYWGQGTLVTVSS VL: DIVMTQSPLSNPVTPGEPASISCRSSKSLLHRNGKTYLYWYLQKPGQSPQLLIYQMDHLASGVPDRFSSSGSGTDFTLKISRVEAEDVGVYYCAQNLELWTFGQGTKVEIK", 3.09]
]}

QUERY: For the binder humanised de-immunised construct H48L21 (antibody, human IgG1, V domains shown) VH: QVQLVQSGAEVKEPGASVKVSCKGSGFNIHVYYVHWLRQLPEKGLEWIGRIDPENGETIYTPKFQDKATLTVDTSTDTAYMELSSLRSEDTAVYYCVSSGYWGQGTLVTVSS VL: DIVMTQSPLSNPVTPGEPASISCRSSKSLLHRNGKTYLYWYLQKPGQSPQLLIYQMDNLASGVPDRFSSSGSGTDFTLKISRVEAEDVGVYYCAQNLELWTFGQGTKVEIK , what Kd is on record?
RESULT: 2.01

QUERY: For the binder humanised de-immunised construct H50L19 (antibody, human IgG1, V domains shown) VH: QVQLVQSGAEVKEPGASVKVSCTGSGFNIHVYYVHWLRQLPEKGLEWIGRIDPENGETIYTPKFQDKATLTVDTSTDTAYMELSSLRSEDTAVYYCVSSGYWGQGTLVTVSS VL: DIVMTQSPLSNPVTPGEPASISCRSSKSLLHRNGKTYLYWYLQKPGQSPQLLIYQMDHLASGVPDRFSSSGSGTDFTLKISRVEAEDVGVYYCAQNLELWTFGQGTKVEIK , what Kd is on record?
RESULT: 2.76
